This section presents compounds with their documented melting point values.

As a guide, the following entries are already answered.
Look up melting point for this compound: Cc1nc(C2CCN(C(=O)c3cc(C#N)c(-c4ccc(C(F)(F)F)cn4)nc3C)CC2)no1
60 to 62 °C

Look up melting point for this compound: N#Cc1cc(C(=O)N2CCC(O)(c3ccc(Cl)cc3)CC2)c(C(F)F)nc1-c1ccc(Cl)cn1
175 to 177 °C

Look up melting point for this compound: N#Cc1cc(C(=O)N2CCC(O)(c3ccc(Cl)cc3)CC2)c(C(F)F)nc1-c1ccc(C(F)(F)F)cc1
200 °C

Look up melting point for this compound: N#Cc1cc(C(=O)N2CCC(c3noc(O)n3)C2)c(C(F)F)nc1-c1ccc(C(F)(F)F)cc1 (centres unmarked)
181 to 184 °C

Look up melting point for this compound: CCCn1cc(-c2nc(C(F)F)c(C(=O)N3CCC(O)(c4ccc(Cl)cc4)CC3)cc2C#N)cn1
193 to 195 °C

Alright, here's another compound for you.
Look up melting point for this compound: N#Cc1cc(C(=O)N2CCC(O)(c3ccc(Cl)cc3)CC2)c(C(F)F)nc1-c1ccnc(F)c1
150 to 155 °C

* * *

VALUE TYPE: melting point

As a guide, the following entries are already answered.
Look up melting point for this compound: Cn1cc(-c2nc(C(F)F)c(C(=O)N3CCC(O)(c4ccc(Cl)cc4)CC3)cc2C#N)cn1
220 °C

Look up melting point for this compound: CO[C@@]1(c2ccc(C)cc2)[C@@H]2CC[C@H]1CN(C(=O)c1cc(C#N)c(-c3ccc(C(F)(F)F)cc3)nc1C(F)F)C2
228 to 230 °C

Further cases:
Look up melting point for this compound: N#Cc1cc(C(=O)N2CCC(O)(c3ccccc3Cl)C2)c(C(F)F)nc1-c1ccc(C(F)(F)F)cc1 (centres unmarked)
191 to 195 °C

Look up melting point for this compound: Cc1nc(C2CCN(C(=O)c3cc(C#N)c(-c4ccc(Cl)s4)nc3C)CC2)no1
69 to 71 °C

Look up melting point for this compound: N#Cc1cc(C(=O)N2CCC(O)(c3ccc(Cl)cc3)CC2)c(C(F)F)nc1-c1ccc(C(F)(F)F)nc1
177 to 180 °C

Values from patent US11178872B2
